- ASSAY_REMARKS: AUC (0 to infinity) in male Sprague-Dawley rat at 5 mg/kg, iv measured upto 24 hrs by LC-MS/MS analysis
- Assay type: ADME, organism-based
- EXPERIMENTAL_CONDITIONS: in vivo
ENDPOINT: AUC(0-inf)

{"SMILES_REPR": "CC(=O)Nc1nc(OCc2ccc(F)cc2)ccc1N", "ENDPOINT": "AUC(0-inf)", "MEASUREMENT": "1520 ng·h/mL"}
